Origin of measurements: ChEMBL document CHEMBL1150295

# Ki measurements, system: Sodium-dependent noradrenaline transporter (Homo sapiens, UniProt P23975)
# Sequence (P23975 whole entry): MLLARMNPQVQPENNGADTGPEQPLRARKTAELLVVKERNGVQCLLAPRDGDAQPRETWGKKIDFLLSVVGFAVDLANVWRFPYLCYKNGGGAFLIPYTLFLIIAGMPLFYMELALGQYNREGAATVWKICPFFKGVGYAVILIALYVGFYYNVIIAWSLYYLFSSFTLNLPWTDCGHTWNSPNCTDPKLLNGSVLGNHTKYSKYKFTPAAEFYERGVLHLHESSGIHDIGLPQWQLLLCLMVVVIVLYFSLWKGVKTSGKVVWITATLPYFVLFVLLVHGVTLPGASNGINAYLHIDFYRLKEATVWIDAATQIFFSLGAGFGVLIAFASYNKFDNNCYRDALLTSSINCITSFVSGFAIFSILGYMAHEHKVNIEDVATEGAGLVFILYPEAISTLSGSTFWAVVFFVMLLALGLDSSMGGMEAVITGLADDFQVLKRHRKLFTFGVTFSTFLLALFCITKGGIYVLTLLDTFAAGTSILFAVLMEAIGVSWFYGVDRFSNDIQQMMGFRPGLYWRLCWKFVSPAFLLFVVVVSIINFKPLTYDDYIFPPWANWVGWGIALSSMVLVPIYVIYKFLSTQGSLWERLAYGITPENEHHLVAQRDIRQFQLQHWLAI
outcomeMeasure: Ki (nM)

• Cc1ccc([C@H]2C[C@@H]3CC[C@H]([C@H]2C#Cc2ccccc2)N3C)cc1 = 31
• CN1[C@H]2CC[C@@H]1[C@@H](c1cn(CCN3CCCCC3)nn1)[C@@H](c1ccc(Cl)cc1)C2 = 430
• CN1[C@H]2CC[C@@H]1[C@@H](C=C(Br)Br)[C@@H](c1ccc(Cl)cc1)C2 = 3.5
• Cc1ccc([C@H]2C[C@@H]3CC[C@H]([C@H]2C=C(Br)Br)N3C)cc1 = 3.4
• C#C[C@H]1[C@@H](c2ccc(C)cc2)C[C@@H]2CC[C@H]1N2C = 150
• CN1[C@H]2CC[C@@H]1[C@@H](C#Cc1ccccc1)[C@@H](c1ccc(Cl)cc1)C2 = 14
• COC(=O)[C@H]1[C@@H](c2ccccc2)C[C@@H]2CC[C@H]1N2C = 556
• CN1[C@H]2CC[C@@H]1[C@@H](c1cn(Cc3ccccc3)nn1)[C@@H](c1ccc(Cl)cc1)C2 = 2560
• CN1[C@H]2CC[C@@H]1[C@H](C=C(Br)Br)[C@@H](c1ccc(Cl)cc1)C2 = 49
• CN1[C@H]2CC[C@@H]1[C@@H](C#Cc1ccc([N+](=O)[O-])cc1)[C@@H](c1ccc(Cl)cc1)C2 = 230
• CN1[C@H]2CC[C@@H]1[C@@H](C#Cc1ccc(N)cc1)[C@@H](c1ccc(Cl)cc1)C2 = 50
• C#C[C@H]1[C@@H](c2ccc(Cl)cc2)C[C@@H]2CC[C@H]1N2C = 75
• Cc1ccc([C@H]2C[C@@H]3CC[C@H]([C@@H]2C=C(Br)Br)N3C)cc1 = 55
